The reported measurements were obtained from ChEMBL document CHEMBL3997794.

What follows is a collection of IC50 values obtained with Histone deacetylase 3 (Homo sapiens, UniProt O15379).
Sequence (O15379 whole entry): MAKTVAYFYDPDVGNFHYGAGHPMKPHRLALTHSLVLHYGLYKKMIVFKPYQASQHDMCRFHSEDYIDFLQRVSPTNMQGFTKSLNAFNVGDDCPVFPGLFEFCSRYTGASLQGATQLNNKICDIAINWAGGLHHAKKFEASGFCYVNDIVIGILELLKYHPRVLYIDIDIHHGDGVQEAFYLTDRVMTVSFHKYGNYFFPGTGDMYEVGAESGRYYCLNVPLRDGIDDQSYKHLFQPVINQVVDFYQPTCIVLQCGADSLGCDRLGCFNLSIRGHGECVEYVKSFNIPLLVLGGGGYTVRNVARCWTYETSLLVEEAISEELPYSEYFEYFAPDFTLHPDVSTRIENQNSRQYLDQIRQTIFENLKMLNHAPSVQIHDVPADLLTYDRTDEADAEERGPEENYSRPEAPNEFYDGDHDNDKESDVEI
recordedEndpoint: IC50

[[record]]
smilesrepresentation = "CC(C)(C)OC[C@@H]1N=C(c2ccccc2)c2ccccc2N(CCCCC(=O)NO)C1=O"
result = "1.21 µM"

[[record]]
smilesrepresentation = "COC(=O)CCCCN1C(=O)[C@H](CCCNC(=N)NS(=O)(=O)c2c(C)c(C)c3c(c2C)CC(C)(C)O3)N=C(c2ccccc2)c2ccccc21"
result = "> 30 µM"

[[record]]
smilesrepresentation = "COC(=O)CCCCN1C(=O)[C@H](CC(=O)NC(c2ccccc2)(c2ccccc2)c2ccccc2)N=C(c2ccccc2)c2ccccc21"
result = "> 30 µM"

[[record]]
smilesrepresentation = "NC(=O)CC[C@@H]1N=C(c2ccccc2)c2ccccc2N(CCCCC(=O)NO)C1=O"
result = "1.94 µM"

[[record]]
smilesrepresentation = "COC(=O)CCCCN1C(=O)[C@H](CC(C)C)N=C(c2ccccc2)c2ccccc21"
result = "> 30 µM"

[[record]]
smilesrepresentation = "O=C(O)CCCCN1C(=O)[C@H](CC(=O)NC(c2ccccc2)(c2ccccc2)c2ccccc2)N=C(c2ccccc2)c2ccccc21"
result = "> 30 µM"

[[record]]
smilesrepresentation = "COC(=O)CCCCN1C(=O)[C@H](CCC(=O)NC(c2ccccc2)(c2ccccc2)c2ccccc2)N=C(c2ccccc2)c2ccccc21"
result = "> 30 µM"

[[record]]
smilesrepresentation = "CC(C)[C@@H]1N=C(c2ccccc2)c2ccccc2N(CCCCC(=O)O)C1=O"
result = "> 30 µM"

[[record]]
smilesrepresentation = "C[C@@H](OCc1ccccc1)[C@@H]1N=C(c2ccccc2)c2ccccc2N(CCCCC(=O)NO)C1=O"
result = "0.91 µM"

[[record]]
smilesrepresentation = "O=C(O)CCCCN1C(=O)[C@H](CCC(=O)O)N=C(c2ccccc2)c2ccccc21"
result = "> 30 µM"

[[record]]
smilesrepresentation = "COC(=O)CCCCN1C(=O)[C@H](Cc2ccc(OC(C)(C)C)cc2)N=C(c2ccccc2)c2ccccc21"
result = "> 30 µM"

[[record]]
smilesrepresentation = "C[C@@H]1N=C(c2ccccc2)c2ccccc2NC1=O"
result = "> 30 µM"

[[record]]
smilesrepresentation = "O=C(CCCCN1C(=O)[C@H](CCC(=O)NO)N=C(c2ccccc2)c2ccccc21)NO"
result = "2.57 µM"

[[record]]
smilesrepresentation = "CC(C)(C)OC(=O)n1c(C[C@@H]2N=C(c3ccccc3)c3ccccc3N(CCCCC(=O)O)C2=O)cc2ccccc21"
result = "> 30 µM"

[[record]]
smilesrepresentation = "CC(C)(C)Oc1ccc(C[C@@H]2N=C(c3ccccc3)c3ccccc3N(CCCCC(=O)NO)C2=O)cc1"
result = "0.85 µM"

[[record]]
smilesrepresentation = "CC(C)(C)OC(=O)NCCCC[C@@H]1N=C(c2ccccc2)c2ccccc2N(CCCCC(=O)NO)C1=O"
result = "0.59 µM"

[[record]]
smilesrepresentation = "O=C(O)CCCCN1C(=O)CN=C(c2ccccc2)c2ccccc21"
result = "> 30 µM"

